- Tested on: liver cancer (3 cell lines)
- Test Description: CellTiter-Glo Viability Assay, liver cancer
- Assay type: cell-based
- Reported Conditions: Homo sapiens; HEPG2 cell line; inhibition of cancer cell proliferation; read-out: Liver cancer, EC50 HEPG2
pEC50: −log10 of the molar value.
Label class 1 when pEC50 is at or above 6; anything below gets class 0.

| Cpd Smiles | Assayed Target | Assigned Class |
| --- | --- | --- |
| CC(C)Nc1cncc(-c2ccc3cnc(NC(=O)c4cn(C5CCN(CCF)CC5)nn4)cc3c2)n1 | liver cancer (3 cell lines) | class 0 |

Query string: Is it the case that CN(C)CCOc1cc(C(=O)Nc2cc3cc(-c4cnn(C)c4)ccc3cn2)ccn1 has pEC50 reaching or exceeding 6?
Result string: class 1

Query string: Is it the case that O=C1CCc2cccc(c2)-c2cncc3[nH]c(nc23)-c2n[nH]c3ccc(cc23)-c2cncc(c2)N1 has pEC50 reaching or exceeding 6?
Result string: class 0

Query string: Is it the case that O=C1CCc2cccc(c2)-c2cncc(c2)NC(=O)c2n[nH]c3ccc(cc23)-c2cncc(c2)CN1 has pEC50 reaching or exceeding 6?
Result string: class 0

Query string: Is it the case that c1cncc(-c2ccc3[nH]nc(-c4cc5c(-c6cccnc6)cncc5[nH]4)c3c2)c1 has pEC50 reaching or exceeding 6?
Result string: class 0

Query string: Is it the case that O=C(Nc1cncc(-c2ccc3[nH]nc(-c4cc5cnccc5[nH]4)c3c2)c1)C1CCCCC1 has pEC50 reaching or exceeding 6?
Result string: class 1

Query string: Is it the case that CN1CCC(Oc2ccc(C(=O)Nc3cc4cc(-c5cnn(C)c5)ccc4cn3)cc2)CC1 has pEC50 reaching or exceeding 6?
Result string: class 1

Query string: Is it the case that Cc1ncc(C(=O)Nc2cc3nc(-c4cnc(C)n4C)ccc3cn2)s1 has pEC50 reaching or exceeding 6?
Result string: class 1

---

Recorded EC50 for the following compounds
- System: colorectal cancer (6 cell lines)
- Test Description: CellTiter-Glo Viability Assay, colorectal cancer
- Format: cell-based
- Reported Conditions: Homo sapiens, HT-29; HT29 cell line; inhibition of cancer cell proliferation; read-out: Colorectal cancer, EC50 (μM) HT29
Form entry: value (µM) — number only.

Query string: Write EC50 of Cc1ncc(-c2ccc3cnc(NC(=O)c4cnn(C5CCN(C)CC5)c4)cc3c2)o1 [Compound 83] ; system used: colorectal cancer (6 cell lines)
Result string: 0.182

Query string: Write EC50 of Cn1cc(-c2ccc3cnc(NC(=O)c4ccc5c(c4)CNCC5)cc3c2)cn1 [Compound 74] ; system used: colorectal cancer (6 cell lines)
Result string: 0.52

Query string: Write EC50 of Cn1ncc(-c2ccc3cnc(NC(=O)C4CC5(C4)CN(CCF)C5)cc3c2)c1CN1CCCCC1 [Compound 77] ; system used: colorectal cancer (6 cell lines)
Result string: 0.537

Query string: Write EC50 of COc1ccc(NC(=O)c2n[nH]c3ccc(-c4cncc(CN5CCCCC5)c4)cc23)cn1 [Compound 59] ; system used: colorectal cancer (6 cell lines)
Result string: 0.666

Query string: Write EC50 of CN1CCN(c2cc(C(=O)Nc3cc4cc(-c5cnn(C)c5N)ccc4cn3)ccn2)CC1 [Compound 75] ; system used: colorectal cancer (6 cell lines)
Result string: 0.187

---

- Assayed Target: CLK2 (Homo sapiens)
- Construct: purchased Thermo Fisher (Life Technologies), Z'-LYTE Kinase Assay Kits
- Sequence (P49760 whole entry): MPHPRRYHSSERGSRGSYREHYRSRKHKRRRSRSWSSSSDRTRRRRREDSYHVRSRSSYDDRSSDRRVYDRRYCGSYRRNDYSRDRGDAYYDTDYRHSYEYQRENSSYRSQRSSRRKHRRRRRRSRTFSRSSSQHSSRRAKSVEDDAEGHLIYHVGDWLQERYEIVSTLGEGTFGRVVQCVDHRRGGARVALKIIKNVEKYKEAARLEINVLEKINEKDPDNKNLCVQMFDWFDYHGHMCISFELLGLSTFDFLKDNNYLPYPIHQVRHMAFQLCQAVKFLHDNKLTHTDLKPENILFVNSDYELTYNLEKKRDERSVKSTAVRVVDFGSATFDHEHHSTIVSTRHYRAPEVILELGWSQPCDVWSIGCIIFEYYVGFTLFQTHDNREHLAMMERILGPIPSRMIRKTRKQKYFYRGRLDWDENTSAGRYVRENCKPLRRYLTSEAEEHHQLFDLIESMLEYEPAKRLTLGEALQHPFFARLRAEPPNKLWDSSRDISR
- Test Description: CLK2 kinase activity assay (Z-lyte, Ser/Thr 6 peptide)
- Format: biochemical
- Reported Conditions: recombinant CLK2 kinase, ATP 60 μM; read-out: EC50
Recorded pEC50 for the following compounds
Please keep in mind that pEC50 is minus log10 of the molar concentration; only the number is needed.

Worked cases, answers included:
| Cpd Smiles | Quantitative Result |
| --- | --- |
| O=C1CCc2cccc(c2)-c2cncc(c2)NC(=O)c2n[nH]c3ccc(cc23)-c2cncc(c2)CN1 | 8.28 |
| CN1CCN(c2cc(C(=O)Nc3cc4cc(-c5cnn(C)c5)c(F)cc4cn3)ccn2)CC1 | 8.72 |
| CN1CC=C(c2cc(C(=O)Nc3cc4cc(-c5cncc(NC(C)(C)C)n5)cnc4cn3)ccn2)CC1 | 8.33 |
| Cn1cncc1-c1ccc2cnc(NC(=O)c3ccc4c(c3)CNC4)cc2c1 | 9.00 |
| CC(C)N1CCC(n2cc(C(=O)Nc3cc4cc(-c5cnn(C)c5)ccc4cn3)cn2)CC1 | 9.00 |
| Cc1nc(Nc2n[nH]c3c2CN(C(=O)N[C@H](CN(C)C)c2ccccc2)C3(C)C)c2sccc2n1 | 8.00 |
| Cc1ncc(-c2cnc3[nH]nc(-c4cc5c(-c6cc(F)cc(NCCN(C)C)c6)ccnc5[nH]4)c3c2)n1C | 8.72 |
| Cc1ncc(C(=O)Nc2cc3cc(-c4cnc(C)n4C)ccc3cn2)s1 | 9.00 |

Query string: Provide only the value of recorded pEC50 for CN1CCN(c2ccc(NC(=O)c3n[nH]c4ccc(-c5cncc(NC(=O)C6CC6)c5)cc34)cn2)CC1
Result string: 9.05

Query string: Provide only the value of recorded pEC50 for O=C1COc2cccc(c2)-c2cncc3[nH]c(nc23)-c2n[nH]c3ccc(cc23)-c2cncc(c2)N1
Result string: 8.48

Query string: Provide only the value of recorded pEC50 for c1cncc(-c2ccc3[nH]nc(-c4nc5ccncc5[nH]4)c3c2)c1
Result string: 8.40
